Answer each item with its documented pIC50.
In plain terms, pIC50 is the concentration in mol/L turned into minus its base-10 logarithm.

Identify the measured pIC50 of COC(=O)[C@@H](C)NC(=O)c1ccccc1Nc1c(Cl)ccc(C)c1Cl for Prostaglandin G/H synthase 2 (Homo sapiens). 5.22

Which pIC50 is reported with Prostaglandin G/H synthase 2 (Homo sapiens) for this entry: Cc1ccc(Cl)c(Nc2ccccc2C(=O)NCC(=O)O)c1Cl ? 6.52

pIC50 of Cc1ccc(Cl)c(Nc2ccccc2C(=O)NOC(C)(C)C)c1Cl on Prostaglandin G/H synthase 2 (Homo sapiens)? 4.18

Hello, I am looking for reported pIC50 with Prostaglandin G/H synthase 2 (Homo sapiens) for Cc1ccc(Cl)c(Nc2ccccc2C(=O)NOCc2ccccc2)c1Cl . Could you help? 4.18

Observed pIC50 on Prostaglandin G/H synthase 2 (Homo sapiens) for Cc1ccc(Cl)c(Nc2ccccc2C(=O)NCCBr)c1Cl , please. 5.70

Write down the reported pIC50 of Cc1ccc(Cl)c(Nc2ccccc2C(=O)NCCOc2ccccc2)c1Cl , test system: Prostaglandin G/H synthase 2 (Homo sapiens). 4.18

Kindly state the measured pIC50 obtained for CONC(=O)c1ccccc1Nc1c(Cl)ccc(C)c1Cl with Prostaglandin G/H synthase 2 (Homo sapiens). 4.26

# returns recorded pIC50 (system: Prostaglandin G/H synthase 2 (Homo sapiens)) for COC(=O)CNC(=O)c1ccccc1Nc1c(Cl)ccc(C)c1Cl 5.92

Given the entry Cc1ccc(Cl)c(Nc2ccccc2C(=O)NCCO)c1Cl , what pIC50 was observed with Prostaglandin G/H synthase 2 (Homo sapiens)? 6.00

For Prostaglandin G/H synthase 2 (Homo sapiens), provide pIC50 of Cc1ccc(Cl)c(Nc2ccccc2C(=O)NOCc2ccc([N+](=O)[O-])cc2)c1Cl please. 4.18

* * *

Provide the recorded pIC50 for the entries that follow.
- System Tested: Prostaglandin G/H synthase 2 (Homo sapiens)
- Sequence (P35354 whole entry): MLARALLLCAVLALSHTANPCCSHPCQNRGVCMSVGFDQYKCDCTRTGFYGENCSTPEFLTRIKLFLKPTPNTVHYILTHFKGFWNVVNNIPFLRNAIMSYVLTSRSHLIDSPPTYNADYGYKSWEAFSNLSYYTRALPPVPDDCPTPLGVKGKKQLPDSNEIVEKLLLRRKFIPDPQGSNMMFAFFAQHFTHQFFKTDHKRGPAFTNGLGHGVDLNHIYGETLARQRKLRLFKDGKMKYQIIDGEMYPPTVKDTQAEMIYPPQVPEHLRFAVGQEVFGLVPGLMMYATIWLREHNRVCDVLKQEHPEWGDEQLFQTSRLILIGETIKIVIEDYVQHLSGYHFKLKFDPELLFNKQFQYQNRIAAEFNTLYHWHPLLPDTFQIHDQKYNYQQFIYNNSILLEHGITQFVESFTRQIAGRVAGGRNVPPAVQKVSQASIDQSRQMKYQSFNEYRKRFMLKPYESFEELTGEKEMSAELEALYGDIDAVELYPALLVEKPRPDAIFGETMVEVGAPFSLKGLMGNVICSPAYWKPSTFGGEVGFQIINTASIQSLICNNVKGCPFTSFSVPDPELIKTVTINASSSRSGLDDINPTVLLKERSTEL
Reminder that pIC50 is minus the log10 of a molar concentration.

API: value(readout=pIC50, system=Prostaglandin G/H synthase 2 (Homo sapiens)) for record COC(=O)[C@H](C)NC(=O)c1ccccc1Nc1c(Cl)ccc(C)c1Cl 5.59

So what pIC50 did Cc1ccc(Cl)c(Nc2ccccc2C(=O)NCCCCl)c1Cl get with Prostaglandin G/H synthase 2 (Homo sapiens)? 5.62

Observed pIC50 on Prostaglandin G/H synthase 2 (Homo sapiens) for Cc1ccc(Cl)c(Nc2ccccc2C(=O)N[C@@H](C)C(=O)O)c1Cl , please. 4.48

* * *

The next entries give measured pIC50 for Prostaglandin G/H synthase 1 (Ovis aries, UniProt P05979).
As a rule, pIC50 stands for the negative log10 of the concentration, concentration in M.

What value of measured pIC50 is listed for Cc1ccc(Cl)c(Nc2ccccc2C(=O)NCCOc2ccccc2)c1Cl ? 6.82

For the compound shown here, COC(=O)[C@H](C)NC(=O)c1ccccc1Nc1c(Cl)ccc(C)c1Cl , give the reported pIC50. 6.10

// query pIC50 value for entry COC(=O)[C@@H](C)NC(=O)c1ccccc1Nc1c(Cl)ccc(C)c1Cl 5.57

What does the record list as pIC50 for COC(=O)c1ccccc1Nc1c(Cl)ccc(C)c1Cl ? 4.77

Need pIC50 of Cc1ccc(Cl)c(Nc2ccccc2C(=O)N[C@@H](C)C(=O)O)c1Cl , thanks. 5.22

Look up pIC50: CCOC(=O)CNC(=O)c1ccccc1Nc1c(Cl)ccc(C)c1Cl 6.70

Returns the measured pIC50 for the input compound. Input: Cc1ccc(Cl)c(Nc2ccccc2C(=O)NOCc2ccc([N+](=O)[O-])cc2)c1Cl 6.70

Please give the measured pIC50 for this compound: COCCNC(=O)c1ccccc1Nc1c(Cl)ccc(C)c1Cl 6.85

Find the recorded pIC50 belonging to COCCCNC(=O)c1ccccc1Nc1c(Cl)ccc(C)c1Cl and report it. 6.60

What does the record list as pIC50 for Cc1ccc(Cl)c(Nc2ccccc2C(=O)NCCc2ccccc2)c1Cl ? 5.35

Query: pIC50; subject: CONC(=O)c1ccccc1Nc1c(Cl)ccc(C)c1Cl 6.30

Report pIC50 for Cc1ccc(Cl)c(Nc2ccccc2C(=O)NCC(=O)O)c1Cl please. 6.40

* * *

- System Tested: Prostaglandin G/H synthase 2 (Mus musculus, UniProt Q05769, R106A)
- Sequence (Q05769 18-604 R106A limits assumed): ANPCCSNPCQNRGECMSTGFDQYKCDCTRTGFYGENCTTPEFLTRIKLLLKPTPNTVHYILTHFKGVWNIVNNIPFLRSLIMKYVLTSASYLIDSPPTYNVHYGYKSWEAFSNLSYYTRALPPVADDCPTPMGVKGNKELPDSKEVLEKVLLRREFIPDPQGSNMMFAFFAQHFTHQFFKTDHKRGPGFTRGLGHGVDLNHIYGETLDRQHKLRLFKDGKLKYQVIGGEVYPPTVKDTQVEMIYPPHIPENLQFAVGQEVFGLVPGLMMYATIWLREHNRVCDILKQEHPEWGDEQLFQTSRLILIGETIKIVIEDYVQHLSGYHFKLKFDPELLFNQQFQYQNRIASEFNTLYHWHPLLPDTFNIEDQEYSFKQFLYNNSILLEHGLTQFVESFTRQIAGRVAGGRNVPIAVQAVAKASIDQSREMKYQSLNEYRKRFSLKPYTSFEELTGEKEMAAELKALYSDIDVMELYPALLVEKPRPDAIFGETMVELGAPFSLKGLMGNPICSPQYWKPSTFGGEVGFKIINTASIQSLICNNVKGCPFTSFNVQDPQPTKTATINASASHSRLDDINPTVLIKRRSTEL
- Experiment Description: Inhibition of the murine Arg120Ala mutant type COX-2
Reported Property: pIC50
// pIC50 is dimensionless: -log10 of concentration (M)

Which pIC50 value belongs to Cc1ccc(Cl)c(Nc2ccccc2C(=O)O)c1Cl ? 6.40

* * *

- System Tested: Prostaglandin G/H synthase 2 (Mus musculus, UniProt Q05769, R106A)
Reported Property: IC50 (µM)
The answer is to be given in µM; state only the numeric part.

# IC50 lookup, item Cc1ccc(Cl)c(Nc2ccccc2C(=O)NCCOc2ccccc2)c1Cl 0.55

Reference source: ChEMBL document CHEMBL1135055
